Target: recombinant autotaxin (Homo sapiens, UniProt Q13822)
Test: Autotaxin test (enzyme test), Amplex Red fluorescence with LPC substrate
Details: autotaxin inhibition (enzyme test)
Assay Readout: IC50

[
  {
    "Compound": "O=C1Nc2ccc(-c3ccc(Cl)cc3F)cc2C(=O)N2CCN(C(=O)Cc3ccccn3)CC12 (centres unmarked) [Compound A30]",
    "Experimental System": "recombinant autotaxin (Homo sapiens, UniProt Q13822)",
    "Value Observed": "> 1 µM"
  },
  {
    "Compound": "O=C1Nc2ccc(-c3ccc(Cl)cc3)cc2C(=O)N2CCN(C(=O)C(O)c3cccc(C(F)(F)F)c3)CC12 (centres unmarked) [Compound A45]",
    "Experimental System": "recombinant autotaxin (Homo sapiens, UniProt Q13822)",
    "Value Observed": "> 1 µM"
  },
  {
    "Compound": "O=C(C(=O)N1CCN2C(=O)c3cc(-c4ccc(Cl)cc4)ccc3NC(=O)C2C1)c1ccccc1 (centres unmarked) [Compound A35]",
    "Experimental System": "recombinant autotaxin (Homo sapiens, UniProt Q13822)",
    "Value Observed": "> 1 µM"
  },
  {
    "Compound": "CC(C)(C)CC(=O)N1CCN2C(=O)c3cc(-c4ccc(Cl)cc4)ccc3N(CCO)C(=O)C2C1 (centres unmarked) [Compound A165]",
    "Experimental System": "recombinant autotaxin (Homo sapiens, UniProt Q13822)",
    "Value Observed": "0.1 to 1 µM"
  },
  {
    "Compound": "CC(C)(C)[C@H](N)C(=O)N1CCN2C(=O)c3cc(-c4ccc(Cl)cc4F)ccc3NC(=O)[C@@H]2C1 [Compound A66]",
    "Experimental System": "recombinant autotaxin (Homo sapiens, UniProt Q13822)",
    "Value Observed": "0.1 to 1 µM"
  },
  {
    "Compound": "CC(C)(C)[C@H](O)C(=O)N1CCN2C(=O)c3cc(-c4ccc(Cl)cc4)ccc3NC(=O)[C@H]2C1 [Compound A56]",
    "Experimental System": "recombinant autotaxin (Homo sapiens, UniProt Q13822)",
    "Value Observed": "0.1 to 1 µM"
  },
  {
    "Compound": "O=C1Nc2ccc(-c3ccccc3F)cc2C(=O)N2CCN(C(=O)[C@@H]3CSCN3)CC12 (some centres unmarked) [Compound A12]",
    "Experimental System": "recombinant autotaxin (Homo sapiens, UniProt Q13822)",
    "Value Observed": "> 1 µM"
  },
  {
    "Compound": "Cc1ccc(-c2ccc3c(c2)C(=O)N2CCN(C(=O)[C@@H]4CCCN4C4CCNCC4)C[C@@H]2C(=O)N3)c(F)c1F [Compound A101]",
    "Experimental System": "recombinant autotaxin (Homo sapiens, UniProt Q13822)",
    "Value Observed": "0.1 to 1 µM"
  },
  {
    "Compound": "CC(C)(C)[C@H](NC1CCNCC1)C(=O)N1CCN[C@@H](C(=O)Nc2ccc(-c3ccc(Cl)cc3F)cc2C(=O)O)C1 [Compound 47]",
    "Experimental System": "recombinant autotaxin (Homo sapiens, UniProt Q13822)",
    "Value Observed": "0.1 to 1 µM"
  },
  {
    "Compound": "O=C1Nc2ccc(-c3ccc(Cl)cc3F)cc2C(=O)N2CCN(C(=O)[C@@H]3CCCN3C3CCNCC3)C[C@H]12 [Compound A117]",
    "Experimental System": "recombinant autotaxin (Homo sapiens, UniProt Q13822)",
    "Value Observed": "> 1 µM"
  },
  {
    "Compound": "CC(C)[C@H](N)C(=O)N1CCN2C(=O)c3cc(-c4ccc(Cl)cc4F)ccc3NC(=O)[C@H]2C1 [Compound A63]",
    "Experimental System": "recombinant autotaxin (Homo sapiens, UniProt Q13822)",
    "Value Observed": "> 1 µM"
  }
]
